- Tgt: USP8^CD (purified catalytic domain of USP8) (Homo sapiens, UniProt P40818)
- Construct: the purified catalytic domain of USP8 (USP8^CD, in-house purified); made in house; host or cells: E. coli BL21 Gold
- Sequence (P40818 777-1109 limits assumed): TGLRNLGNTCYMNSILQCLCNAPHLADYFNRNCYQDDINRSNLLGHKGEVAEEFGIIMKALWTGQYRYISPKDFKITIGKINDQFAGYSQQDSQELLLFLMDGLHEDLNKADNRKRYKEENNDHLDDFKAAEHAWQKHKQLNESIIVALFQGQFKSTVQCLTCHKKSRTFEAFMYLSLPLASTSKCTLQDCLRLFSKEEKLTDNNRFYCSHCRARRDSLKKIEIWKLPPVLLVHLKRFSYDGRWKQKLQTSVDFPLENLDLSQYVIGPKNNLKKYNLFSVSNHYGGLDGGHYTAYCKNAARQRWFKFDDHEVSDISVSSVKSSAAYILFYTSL
- Method notes: Inhibition of purified USP8^CD enzymatic activity (Ub-AMC or Ub-Rho substrate)
- Assay type: biochemical
- Condition description: 0.5 μM compound; Ub-AMC at 1 μM; Table 1a
Field: USP8^CD % inhibition. Provide a value for each of the compounds that follow.
Return type: number; implicit unit %.

QUERY: Give the measured USP8^CD % inhibition of O=C1c2ccccc2C(=O)c2nc(CCl)c(CCl)nc21 [PCR8146] .
RESULT: 35

QUERY: Note, next up: O=C1c2ccccc2C(=O)c2nc(CS(=O)(=O)c3ccc([N+](=O)[O-])cc3)c(CS(=O)(=O)c3ccc([N+](=O)[O-])cc3)nc21 [PCR7991]
RESULT: 97

QUERY: Repeat with O=C1c2ccccc2C(=O)c2nc(CS(=O)(=O)c3cccs3)c(CS(=O)(=O)c3cccs3)nc21 [PCR7997]
RESULT: 3

QUERY: Can you handle Cc1ccc(S(=O)(=O)Cc2nc3c(nc2CS(=O)(=O)c2ccc(C)cc2)C(=O)c2ccccc2C3=O)cc1 [PCR7985] next?
RESULT: 20
